Target: T1, Rattus Kv1.2 (Rattus), P63142
T1 chain: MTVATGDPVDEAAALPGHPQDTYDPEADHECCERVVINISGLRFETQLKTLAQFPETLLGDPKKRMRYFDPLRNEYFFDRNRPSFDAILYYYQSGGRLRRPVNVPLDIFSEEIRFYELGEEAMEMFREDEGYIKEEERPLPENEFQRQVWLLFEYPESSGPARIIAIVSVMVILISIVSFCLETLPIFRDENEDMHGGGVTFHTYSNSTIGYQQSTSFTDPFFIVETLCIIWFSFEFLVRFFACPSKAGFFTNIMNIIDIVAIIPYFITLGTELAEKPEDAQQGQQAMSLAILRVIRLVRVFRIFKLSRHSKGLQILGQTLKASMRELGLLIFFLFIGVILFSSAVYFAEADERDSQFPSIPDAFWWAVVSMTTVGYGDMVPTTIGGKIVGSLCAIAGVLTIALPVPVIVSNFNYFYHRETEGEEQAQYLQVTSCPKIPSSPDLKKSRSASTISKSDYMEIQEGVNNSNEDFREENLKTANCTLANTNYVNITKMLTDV
MEASUREMENT TYPE: Ki (nM)
A number alone suffices; assume nM.

Please review the entries below; each comes with its answer.
>>> print(df.to_string())
                                     binder  measurement_type  measurement_units  recorded_measurement
0  ZFTNVSCTTSKECWSVCQRLHNTSRGKCMNKKCRCYS (modifications not checked) [Charybdotoxin (CTX)]                Ki                 nM                     9
1  GVPINVSCTGSPQCIKPCKDAGMRFGKCMNRKCHCTPK (modifications not checked) [Agitoxin-2 (AgTx2)]                Ki                 nM                   3.4

# evaluate next
The value of Ki measured for the binder GVEINVKCSGSPQCLKPCKDAGMRFGKCMNRKCHCTPK (modifications not checked) [Kaliotoxin-1 (KTX)] turned out to be 20

These data points were gathered from patent US20110009283A1.
